# Test system: SF-539 CNS
# assay.text: NCI-60 one-dose screen, 48 h (100 = growth as untreated, 0 = no growth, -100 = all killed)
# run.conditions: 10 µM unless noted
This is part of a sample that, as a whole, favours compounds with a hit. Of some 83,000 tested, about 20% had one in any assay.
readout.name: growth (%)
Numbers only here, please. The scale is %.

Worked examples follow.
> print(dat)
                                  structure  measured.on  readout.name  value
1  COc1cc(-c2nn(-c3cccc(NC(=O)c4ccc(N5CCOCC5)c(C(F)(F)F)c4)c3)cc2-c2ccncc2)ccc1Cl   SF-539 CNS        growth  -68.9
2  O=C(Nc1ccncc1)C(=O)c1cn(S(=O)(=O)c2ccccc2F)c2ccccc12   SF-539 CNS        growth   6.94
3  COc1c2occc2c(OC)c2c(=O)c(-c3cc(-c4ccc(F)cc4)c(C#N)c(N)n3)c(C)oc12   SF-539 CNS        growth   67.7

Turning now to a further record.
Noted for CCN1CCN(c2nc(NNC(=O)c3ccccc3)nc(N3CCN(C(c4ccccc4)c4ccccc4)CC3)n2)CC1 : its growth reads 73.1

---

# System: SK-OV-3 ovarian
# assay.text: NCI-60 one-dose screen, 48 h (100 = growth as untreated, 0 = no growth, -100 = all killed)
# run.conditions: 10 µM unless noted
Compounds without any hit were thinned out: in the full panel of roughly 83,000, 20% have a hit.
Please mark fulfilled if the recorded growth is equal to or greater than 60%, and not fulfilled if it falls below.

Sample answers from the record:
> print(dat)
                                   compound  classification
1  COc1cc(/C(C#N)=C/c2ccc3c(c2OC)OCO3)cc2c1OCO2   not fulfilled
2  NC1=C(/C(N)=N/O)C(c2ccccc2)c2ccc3ccccc3c2O1 (stereo not given)   not fulfilled
3  O=C1/C(=C/c2ccc(Cl)cc2)CN(C(=O)CCN2CCC(=NO)CC2)C/C1=C\c1ccc(Cl)cc1   not fulfilled
4      N/C(=N\C(N)=N\c1nc2ccccc2s1)c1ccncc1       fulfilled
5  Fc1ccccc1-c1nc(-c2nc3cc(Cl)c(Cl)cc3[nH]2)c2ccccn12       fulfilled

With those in mind, consider the next compound.
Query string: Has Nc1cccc(-c2nc3sccn3c2-c2ccnc(NCCNS(=O)(=O)c3ccc(C(F)(F)F)cc3)n2)c1 a recorded growth greater than or equal to 60%?
Result string: not fulfilled

---

# Tested on: OVCAR-5 ovarian
# assay.text: NCI-60 one-dose screen, 48 h (100 = growth as untreated, 0 = no growth, -100 = all killed)
# run.conditions: 10 µM unless noted
The panel holds about 83,000 compounds, 20% with a hit somewhere; the sample as a whole holds those more often.
Listing: growth of selected compounds
Numbers only here, please. The scale is %.

Worked examples follow.
> print(dat)
                                   compound      measured.on  value
1  O=C(NNC(=S)Nc1ccccc1)c1cc2ccc1CCc1ccc(cc1)CC2  OVCAR-5 ovarian   92.2
2                 CCc1cnc(=S)n(-c2ccccc2)c1  OVCAR-5 ovarian   97.3

Noted for O=Nc1c(-c2cccc([N+](=O)[O-])c2)nc2ncccn12 : its growth reads 93.5

Noted for S=c1[nH]nc(-c2cc3ccc2CCc2ccc(cc2)CC3)n1C1CC1 : its growth reads 99.1

Noted for COc1ccc(CCNC2=CC(=O)CCC2)cc1OC : its growth reads 105

Noted for O=C(O)c1cn(C2CC2)c2cc(N3CCN(C(=O)/C=C/c4ccc(Cl)cc4)CC3)c(F)cc2c1=O : its growth reads 91

Noted for C/C(=C\c1ccc(OCC(=O)O)c(Cl)c1Cl)[N+](=O)[O-] : its growth reads 113

---

# System: UACC-62 melanoma
# assay.text: NCI-60 one-dose screen, 48 h (100 = growth as untreated, 0 = no growth, -100 = all killed)
# run.conditions: 10 µM unless noted
About 83,000 compounds went through this panel and 20% of them were active in at least one assay; those are over-represented in the sample as a whole.
readout.name: growth (%)
Numbers only here, please. The scale is %.

Worked examples follow.
> print(dat)
                                   compound  value
1  COc1ccc(/C(C#N)=C/c2cc(OC)c(OC)c(OC)c2)cc1     39
2       CC(C)CSc1nc(NN)c(C#N)c(-c2ccccc2)n1   95.3
3         CCN(CC)c1ccc(CNc2ccnc3ccccc23)cc1   76.4

growth of CCCCOc1ccc(/C=C2/SC(N3CCOCC3)=NC2=O)cc1OCC , assay on UACC-62 melanoma, is 88.6

growth of O=S(=O)(c1ccc(OCCO)cc1)c1ccc(OCCO)cc1 , assay on UACC-62 melanoma, is 101

growth of Brc1ccc(-c2[nH]ncc2-c2c[nH]c3ccccc23)cc1 , assay on UACC-62 melanoma, is 91.7

growth of COc1cc2c(cc1OCCCN1CCN(CCCn3c4ccccc4c4ccccc43)CC1)N=C[C@@H]1CCCN1C2=O , assay on UACC-62 melanoma, is -87.3

growth of O=C(O)Cc1cccc(=O)c(O)c1C(=O)O , assay on UACC-62 melanoma, is 100

growth of CC1CCC(C)N(C)C1 (stereo not drawn) , assay on UACC-62 melanoma, is 99.7

growth of Cc1ccc(CSC(=N)N)cc1C , assay on UACC-62 melanoma, is 97.8

growth of CC(C)(C)Nc1c(-c2cccs2)nc2ncccn12 , assay on UACC-62 melanoma, is 95.8

growth of COc1cccc(/C=C2\Oc3cc(OCCCN4CCCC4)ccc3C2=O)c1OC , assay on UACC-62 melanoma, is 98.9

growth of Cc1ccc(C(=O)NCCCNc2nccc(-n3ccc4cccnc43)n2)cc1 , assay on UACC-62 melanoma, is 102

---

# Test system: SNB-75 CNS
# assay.text: NCI-60 one-dose screen, 48 h (100 = growth as untreated, 0 = no growth, -100 = all killed)
# run.conditions: 10 µM
About 83,000 compounds went through this panel and 20% of them were active in at least one assay; those are over-represented in the sample as a whole.
Listing: growth of selected molecules
Numbers only here, please. The scale is %.

growth of S=C1CC(=S)NC(=S)N1 , assay on SNB-75 CNS, is 92.5

growth of c1ccc(-c2nnc(-c3ccccn3)s2)nc1 , assay on SNB-75 CNS, is 70.4

growth of Cc1ccc(Cc2c(C=O)nc(N)[nH]c2=O)c2ccccc12 , assay on SNB-75 CNS, is 93

growth of CN(C)c1nc2c(N)ncnc2n1C1OC(CO)C(O)C1O (configuration not stated) , assay on SNB-75 CNS, is 111

growth of CN(C)CCCC(C#N)c1ccccc1 (configuration not stated) , assay on SNB-75 CNS, is 88.5

growth of CN(C)c1ncnc2c1ccn2C1OC(CO)C(O)C1O (configuration not stated) , assay on SNB-75 CNS, is 27

growth of NC(N)=Nc1nc2ccccc2o1 , assay on SNB-75 CNS, is 111

---

# Tested on: MCF7 breast
# assay.text: NCI-60 one-dose screen, 48 h
# run.conditions: 10 µM unless noted
The panel holds about 83,000 compounds, 20% with a hit somewhere; the sample as a whole holds those more often. Active and inactive are the calls of the source. Rule for the calls: active = growth percent below 10; inactive = the rest.
Returns: one label drawn from active, inactive

> print(dat)
                                   molecule  measured.on  classification
1  COc1ccc(/C(C#N)=C/c2cc(OC)c(OC)c(OC)c2)cc1  MCF7 breast        inactive

Query string: Assay outcome for CCN(CC)c1ccc(C(=N)c2ccc(N(CC)CC)cc2)cc1 : what was it?
Result string: active

Query string: Assay outcome for COc1ccc(C2C=C(c3ccc(Cl)cc3)N=C3SC=C(C)N32)c(Br)c1 (stereo unspecified) : what was it?
Result string: inactive

Query string: Assay outcome for COc1cccc(CC(C)=C(c2ccc(OCCN3CCCCC3)cc2)c2ccc(OCCN3CCCCC3)cc2)c1 : what was it?
Result string: active

Query string: Assay outcome for O=C(CN1CCN(c2cc3c(cc2F)c(=O)c(C(=O)N/N=C/c2ccccc2O)cn3C2CC2)CC1)N/N=C\c1ccccc1O : what was it?
Result string: inactive

Query string: Assay outcome for CCN(CC)c1ccc(/C=C2\Oc3ccc(O)c(I)c3C2=O)cc1 : what was it?
Result string: inactive

Query string: Assay outcome for COc1cc(-c2nn(-c3cccc(NC(=O)c4ccc(Cl)c(C(F)(F)F)c4)c3)cc2-c2ccncc2)ccc1Cl : what was it?
Result string: inactive

Query string: Assay outcome for OB(O)c1cccc(-c2nc3ccc4[nH]ncc4c3c3c2CCCC3)c1F : what was it?
Result string: inactive

Query string: Assay outcome for COc1ccc(CN2CCc3c(Sc4ccccc4)nc(N)nc3C2=O)c(OC)c1 : what was it?
Result string: inactive

Query string: Assay outcome for CCCCCCCCCCCCCCCCNC(=O)OC(C)C : what was it?
Result string: active

Values were extracted from PubChem BioAssay (NCI).
